System: MS2 coat protein
Test: apparent KD of MS2 coat protein; higher = weaker reporter binding
Details: Eterna round: R107; input ligand: theophylline 2 mM
endpointName: apparent KD of MS2 coat protein (nM)

>  <seqString>
GGAUGAAACUGAAGGAGCGAGAUCACAAGAAUGGGUCAAACAUGAGGAUCACCCAUGUAAUCUCAGGUAGGUCGCAGUGUCCCUU [Exclusion Arginine B GF 11]

>  <targetSystem>
MS2 coat protein

>  <endpointName>
apparent KD of MS2 coat protein

>  <valueObserved>
55.1

$$$$
>  <seqString>
AGACUUCGCAUAGGAAAACUAUGUGAAGUCCGAGGACCGGUACGGCCGCCACUCGUCCUCAACAUGAGGAUCACCCAUGUAAUAA [#OpenEnded #CuTurnoff #Tail]

>  <targetSystem>
MS2 coat protein

>  <endpointName>
apparent KD of MS2 coat protein

>  <valueObserved>
23.5

$$$$
>  <seqString>
GUUUAAAGGUCGGCCGCCACUGUAGGAUGUGUUCUUUCACAUGAGGAUCACCCAUGUUGUUAUUAUAGGACCGGGAUUGUAGGAC [39MS split4]

>  <targetSystem>
MS2 coat protein

>  <endpointName>
apparent KD of MS2 coat protein

>  <valueObserved>
35.5

$$$$
>  <seqString>
GCCUAGCAGCGAAGGAGCGACAUCGGCGCAUGCGAGGACAUGAGGAUCACCCAUGUACCAUGUCAGGUAGGUCGCGCUGCUAGGC [EAB NP+V+V2 #6]

>  <targetSystem>
MS2 coat protein

>  <endpointName>
apparent KD of MS2 coat protein

>  <valueObserved>
23.2

$$$$
>  <seqString>
AAGUGGCACGGAAGGAGCGAGUUUACCUAAAUAACAUGAGGAUCACCCAUGUAUAAUGGGACUCAGGUAGGUCGCCGUUGUCACU [Same State Arginine B GF 23]

>  <targetSystem>
MS2 coat protein

>  <endpointName>
apparent KD of MS2 coat protein

>  <valueObserved>
28.8

$$$$
>  <seqString>
UUCGCGGCCGCGCUGCACAUGUGUGUGUUACGAGGACCGGUACGGCCGCCACUCGCGAUCGCACAUGAGGAUCACCCAUGUGGGA [Exclusion Tryp A GF17]

>  <targetSystem>
MS2 coat protein

>  <endpointName>
apparent KD of MS2 coat protein

>  <valueObserved>
75.6

$$$$
>  <seqString>
UAAUACCAGGUCAACGUACCAGGUGAUCAACGAGGACCGGUACGGCCGCCACUCGAAACAUGAGGAUCACCCAUGUAAGACCUGG [|T'-M'-Trp-Ms2|_Design 2_ML2]

>  <targetSystem>
MS2 coat protein

>  <endpointName>
apparent KD of MS2 coat protein

>  <valueObserved>
141

$$$$
>  <seqString>
GGUUGAUGGUCGGCCGCCACUGUUGGUGCCAUGAGUUAAGUAUAGCACAUGAGGAUCACCCAUGUCAGGACCGGGACUCUACCCG [theeternabot_exclusion_MS2_Trp_B_16]

>  <targetSystem>
MS2 coat protein

>  <endpointName>
apparent KD of MS2 coat protein

>  <valueObserved>
20.9

$$$$
>  <seqString>
CCUAUGCAGUCGGCCGCCACUGAGUCCUCAAUAAUAAAUUAAUAAACAUGAGGAUCACCCAUGUACAGGACCGGGACUGUAUAGG [Ex Tryptophan B 12]

>  <targetSystem>
MS2 coat protein

>  <endpointName>
apparent KD of MS2 coat protein

>  <valueObserved>
441

$$$$
>  <seqString>
GUGGCGAUCACGGCCGCCACUGAGCAGGUCGAGCUUGACAUGAGGAUCACCCAUGUCUGACGAUACAGGACCGGGUGAUCUCCGC [Titiinanon]

>  <targetSystem>
MS2 coat protein

>  <endpointName>
apparent KD of MS2 coat protein

>  <valueObserved>
149

$$$$
>  <seqString>
UGAGUUAGACAAAAGUCUAGCUCUGGUGAAGGAGCGUCCGAAAGGACAGGUAGGUCGCACCACAUGAGCAUCAGCCAUGUUCCUU [ArgAS 23 #OpenEnded #AlternativeMS2]

>  <targetSystem>
MS2 coat protein

>  <endpointName>
apparent KD of MS2 coat protein

>  <valueObserved>
17.8

$$$$
>  <seqString>
UUGCCCAGUACGGCCGCCACUGUGUGCAGGGAACCCAGGUCCACAUGAGGAUCACCCAUGUACAGCAGGACCGGGUACUUGCAAU [Ininladia]

>  <targetSystem>
MS2 coat protein

>  <endpointName>
apparent KD of MS2 coat protein

>  <valueObserved>
10.6

$$$$

Where do these numbers come from? They come from the supplement of paper PMC9170038.
